Value source: ChEMBL document CHEMBL4431371

Biological target: Cystic fibrosis transmembrane conductance regulator (Homo sapiens, UniProt P13569, F508DEL)
Sequence (P13569 as listed by the source): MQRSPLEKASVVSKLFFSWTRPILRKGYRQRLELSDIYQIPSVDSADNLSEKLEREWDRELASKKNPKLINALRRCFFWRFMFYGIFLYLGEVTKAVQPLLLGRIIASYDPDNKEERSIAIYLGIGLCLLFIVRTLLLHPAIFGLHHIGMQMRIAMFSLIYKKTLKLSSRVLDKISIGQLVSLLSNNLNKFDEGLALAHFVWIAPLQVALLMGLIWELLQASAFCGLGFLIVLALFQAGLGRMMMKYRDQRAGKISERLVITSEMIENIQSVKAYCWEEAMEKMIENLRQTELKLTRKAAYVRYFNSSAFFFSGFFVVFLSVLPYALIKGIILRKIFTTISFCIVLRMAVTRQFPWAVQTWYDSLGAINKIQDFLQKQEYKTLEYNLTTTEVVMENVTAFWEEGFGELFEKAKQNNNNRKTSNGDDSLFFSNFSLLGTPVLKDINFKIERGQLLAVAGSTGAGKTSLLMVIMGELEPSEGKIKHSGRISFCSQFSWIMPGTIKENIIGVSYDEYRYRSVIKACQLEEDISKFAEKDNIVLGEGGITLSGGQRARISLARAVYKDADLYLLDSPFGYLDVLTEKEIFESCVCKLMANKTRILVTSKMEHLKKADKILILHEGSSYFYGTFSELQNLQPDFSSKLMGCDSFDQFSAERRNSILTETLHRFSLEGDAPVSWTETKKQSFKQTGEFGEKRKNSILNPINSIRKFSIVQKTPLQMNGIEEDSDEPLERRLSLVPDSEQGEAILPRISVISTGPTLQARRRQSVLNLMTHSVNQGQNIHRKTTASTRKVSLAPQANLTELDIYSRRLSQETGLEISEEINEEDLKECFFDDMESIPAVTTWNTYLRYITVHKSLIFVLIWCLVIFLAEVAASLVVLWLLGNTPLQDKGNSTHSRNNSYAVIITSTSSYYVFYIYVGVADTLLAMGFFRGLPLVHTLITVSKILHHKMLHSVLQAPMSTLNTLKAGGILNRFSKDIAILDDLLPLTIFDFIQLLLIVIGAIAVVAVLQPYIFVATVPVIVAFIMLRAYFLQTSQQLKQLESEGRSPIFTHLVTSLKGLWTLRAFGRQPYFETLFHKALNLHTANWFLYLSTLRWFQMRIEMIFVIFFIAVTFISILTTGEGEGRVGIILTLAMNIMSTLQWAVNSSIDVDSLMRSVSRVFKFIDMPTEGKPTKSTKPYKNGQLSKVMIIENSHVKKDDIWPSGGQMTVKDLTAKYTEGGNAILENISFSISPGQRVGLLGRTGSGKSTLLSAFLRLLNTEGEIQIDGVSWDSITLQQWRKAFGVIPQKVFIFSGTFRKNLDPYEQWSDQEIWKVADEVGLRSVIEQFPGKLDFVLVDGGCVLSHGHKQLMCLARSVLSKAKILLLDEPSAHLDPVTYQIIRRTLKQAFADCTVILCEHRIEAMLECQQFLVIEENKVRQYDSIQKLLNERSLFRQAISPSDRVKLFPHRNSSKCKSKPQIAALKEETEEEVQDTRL
Test: Corrector activity at CFTR F508del mutant in human bronchial epithelial cells incubated for 18 to 24 hrs by TECC-based conductance assay
pEC50: −log10 of the molar value.
Reported Endpoint: pEC50

P = O=C(O)c1ccc([C@H]2C[C@@H](NC(=O)C3(c4ccc5c(c4)OC(F)(F)O5)CC3)C[C@@H](c3ccccc3)O2)cc1
Q = O=C(O)c1cccc([C@H]2C[C@@H](NC(=O)C3(c4ccc5c(c4)OC(F)(F)O5)CC3)C[C@@H](c3ccccc3)O2)c1
R = O=C(O)c1ccc([C@H]2C[C@@H](NC(=O)C3(c4ccc5c(c4)OC(F)(F)O5)CC3)CCO2)cc1 (racemic)
Task: Could you arrange the 3 compounds above by pEC50, starting with the largest number? Write the labels in rank order as requested.
Output: Q, P, R
(Q: 7.00, P: 6.59, R: 5.87)
